Reference for the values: ChEMBL document CHEMBL3988442

Test system: Wolbachia pipientis
Test: Anti-Wolbachia Cell-Based Screen
Type: functional
Design: scale not given: in the data most compounds retested in dose-response had high values
Conditions: 5 µM
Screen size: about 48,000 compounds; about 13,000 (27%) showed an effect of 50% or more. The list shows a part of the results.
The entries below are paired with their reported Percent Effect.
Numbers only here, please. The scale is %.

Sample records with Percent Effect:
CC(C)OCC(=O)Nc1ccc(Oc2ccc3c(c2)OCO3)nc1: 77.43
CC(Nc1cccc(CN2CCOC2=O)c1)C(=O)NC(N)=O (configuration not stated): 6.904
COCCNS(=O)(=O)c1cccc2c1CN(C(=O)c1ccoc1)CC2: -4.296
CC(=O)Nc1ccc(Oc2ccc3c(c2)OCO3)nc1: 99.6
O=C(Cn1cc(Cl)cn1)Nc1ccc2c(c1)OCO2: 1.967

Record for CC(Nc1cccc(COCc2ccco2)c1)C(=O)NC(N)=O (configuration not stated) under target or system Wolbachia pipientis: Percent Effect reported as 118

Reported Wolbachia pipientis Percent Effect for item Cc1ccc(Oc2ccc(NC(=O)NCC3CCOC3)cn2)cc1C (configuration not stated) was -4.291

---

System: Wolbachia pipientis
Experiment: Anti-Wolbachia Cell-Based Screen
Type: functional
Parameters: scale not given: in the data most compounds retested in dose-response had high values
Settings: 5 µM
Hit rate of the full screen: of about 48,000 compounds, about 13,000 (27%) showed an effect of 50% or more. Some of the results follow.
Entries annotated with measured Percent Effect
Form entry: value (%) — number only.

Recorded results for 8 compounds are shown here.
O=C(c1cccs1)N1CCc2c(nc(N3CCCC3)[nH]c2=O)C1: 120
Cc1occc1C(=O)N1CCc2ncnc(-c3cnn(C)c3)c2CC1: 2.959
COc1ccccc1OCc1cc(C(=O)N2CCCCCC2CO)n[nH]1 (centres undefined): -25.79
COc1cc(C)ccc1OCc1nc(C(=O)N2CCCO2)co1: -7.138
CCN(Cc1ccccc1C)S(C)(=O)=O: -4.247
N#Cc1cccc(CN2C[C@@H](F)[C@@H](OCc3nc4ccccc4[nH]3)C2)c1: 3.783
O=C(c1cc(-n2cccn2)ccn1)N1CCOc2ncccc21: -22.54
O=C(c1coc(COc2ccccc2F)n1)N1CCCO1: 104.9

Reading of Percent Effect for CC1CCCCN1C(=O)c1coc(COc2cccc3cnccc23)n1 (centres undefined) with Wolbachia pipientis: -5.431

Here Nc1nc2c(c(N3CCN(C(=O)c4cccs4)CC3)n1)CCCC2 was tested on Wolbachia pipientis, and its Percent Effect came to 3.246

Kindly note: Wolbachia pipientis, O=C(c1coc(COc2cccc3cnccc23)n1)N1CCCCCC1 , Percent Effect value reported: 5.374

// compound Cc1cnc(C(=O)N2CCc3ncnc(-c4cnn(C)c4)c3CC2)cn1 , assay Wolbachia pipientis, Percent Effect value: 103.6

---

# Percent Effect annotations
Test system: Wolbachia pipientis
Assay: Anti-Wolbachia Cell-Based Screen
Assay type: functional
Set-up: scale not given: in the data most compounds retested in dose-response had high values
Conditions: 5 µM
About 13,000 (27%) of roughly 48,000 compounds showed an effect of 50% or more. Some of the results follow.
The answer consists of two parts: a number and, after it, its unit.

# example entries with known answers
Cc1cnn(C2CCCN(C(=O)c3cc[nH]n3)C2)c1 (stereo unspecified): -3.499%
COCCCNS(=O)(=O)c1cc(Br)sc1C: 2.901%
CC(C)N1CCOC[C@H]1c1nc(C(C)(C)C)c[nH]1: -12.91%
Cc1cccc(-n2cc(C(=O)N3CCCC(n4cccn4)C3)nn2)c1 (stereo unspecified): 4.017%
Cc1cnn(C2CCCN(C(=O)c3cn4ccccc4n3)C2)c1 (stereo unspecified): 104.2%

Please look at the following molecule next.
O=c1[nH]c2c(-c3ccccn3)nsc2c(=O)n1C1CCCCC1 has a reported Percent Effect of 110.2%
